A collection of compounds and their measured T/C
Tested on: L1210 leukemia ip in BDF1 mice, survival T/C
Assay: NCI In Vivo Anticancer Drug Screen. Data for tumor model L1210 Leukemia (intraperitoneal) in B6D2F1 (BDF1) mice
Conditions: endpoint: mean survival time; dose: 150.0 mg/kg/injection; schedule: Q01DX001 (ip); vehicle: saline; higher = longer survival
Protocol: The antitumor activity of compounds was measured in mice bearing transplantable tumors. Survival or tumor size were measured and the results are expressed as the measurement made in the treated group (T) divided by the measurement made in the vehicle treated control group (C). The tumor model used in this assay is L1210 Leukemia (intraperitoneal) in B6D2F1 (BDF1) mice
Inconclusive results and toxic doses are left out.

The examples below pair each entry with its known result.
> print(dat)
                                   compound          measured
1  N#CC(C#N)N=Nc1ccc(S(=O)(=O)Nc2ccccn2)cc1   90 % of control
2  NC(CCCNc1nc(O)c(-c2ccccc2)c(=O)[nH]1)C(=O)O (stereo not drawn)  102 % of control
3                    CCCC(CCC)CCCCC(CCC)CCC   96 % of control

Please give the measured T/C for this compound: COC(=O)CCCN1CC2C=C(C#N)C1C(C(=O)OC)C2 (stereo not drawn) 93 % of control

Please give the measured T/C for this compound: `CCOC(=O)c1ccc2c(ccc[n+]2C)c1` 97 % of control

Please give the measured T/C for this compound: `CCCCCCC[n+]1cccc(C#N)c1` 100 % of control

Please give the measured T/C for this compound: Nc1ccn(C2OC(COP(=O)(O)Oc3ccccc3)C(O)C2O)c(=O)n1 (stereo not drawn) 113 % of control

Please give the measured T/C for this compound: `CNC(=O)c1cc(C(=O)NC)c[n+](Cc2c(Cl)cccc2Cl)c1` 98 % of control

---

Tested on: L1210 leukemia ip in BDF1 mice, survival T/C
Assay: NCI In Vivo Anticancer Drug Screen. Data for tumor model L1210 Leukemia (intraperitoneal) in B6D2F1 (BDF1) mice
Settings: endpoint: mean survival time; dose: 200.0 mg/kg/injection; schedule: Q04DX002 (ip); vehicle: Klucel (hydroxypropylcellulose) (HPC); higher = longer survival
Inconclusive results and toxic doses are left out.
readout.kind: T/C

The examples below pair each entry with its known result.
> print(dat)
                                   compound          measured
1                    Nc1c(Br)cc(I)cc1C(=O)O   93 % of control
2  C=C1CC(c2ccc(S(=O)(=O)N3CCOCC3)cc2)OC1=O (centres undefined)  113 % of control
3  O=C1c2ccccc2C(c2ccccc2)C1c1ccccc1 (centres undefined)   94 % of control

Please give the measured T/C for this compound: `S=C(Nc1ccccc1)Nc1ccccc1Cl` 100 % of control

---

Test system: L1210 leukemia ip in BDF1 mice, survival T/C
Assay: NCI In Vivo Anticancer Drug Screen. Data for tumor model L1210 Leukemia (intraperitoneal) in B6D2F1 (BDF1) mice
Conditions: endpoint: mean survival time; dose: 100.0 mg/kg/injection; schedule: Q04DX003 (ip); vehicle: saline
Toxic doses and inconclusive results are not listed. Rule as the data show it: active = T/C of 150% or more; inactive = T/C below 125%.
In this exercise, the only acceptable responses are active, inactive

> print(dat)
                                   compound  assigned.class
1                                     COCBr        inactive
2  CN1CCN(CCCN2C(c3ccccc3)C2c2ccccc2)CC1 (configuration not stated)        inactive
3  CCC(Cc1ccccc1Br)C1=NC(C)(C)CO1 (configuration not stated)        inactive

# lookup: test call for `COc1ccc(Cl)cc1NC(=O)Nc1c(C)n(C)n(-c2ccccc2)c1=O` inactive

# lookup: test call for CN1CCCCC1CCN1c2ccccc2Sc2ccc(S(C)=O)cc21 (configuration not stated) inactive

# lookup: test call for `C=C[C+](CCCC)C(=O)[O-]` inactive

Where do these numbers come from? They come from PubChem BioAssay AID248.
